Hey, just so you know, these numbers are from the supplement of paper PMC10567573.

B1: HDAC6 (parent)
chain: QYMNEGELRVLADTYDSVYLHPNS

- Variants of: B1
- measurement_description: protein stability index of a GFP-peptide fusion (GPS, HEK-293T) (PSI 1-6); higher = more stable;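 also: lentivirally expressed fusions sorted by FACS into six bins by GFP to DsRed ratio, PSI derived from sequencing read proportions per bin multiplied by bin number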
- settings: c terminus: a fixed tail appended
Below: a set of entries, each annotated with reported protein stability index.

Example variants with recorded protein stability index:
- sequence_data: "QYMNEVELRVLADTYDSVYLHPNS"
  result: 1.97
- sequence_data: "QYMNEGELRVLDDTYDSVYLHPNS"
  result: 1.57
- sequence_data: "QYFNEGELRVLADTYDSVYLHPNS"
  result: 2.15

(Q) Look up protein stability index: `QYMNEGELKVLADTYDSVYLHPNS`
(A) 1.69
